# TARGET_OR_TEST_SYSTEM: WT AKR1D1 (Homo sapiens, UniProt P51857)
# Sequence (P51857 whole entry): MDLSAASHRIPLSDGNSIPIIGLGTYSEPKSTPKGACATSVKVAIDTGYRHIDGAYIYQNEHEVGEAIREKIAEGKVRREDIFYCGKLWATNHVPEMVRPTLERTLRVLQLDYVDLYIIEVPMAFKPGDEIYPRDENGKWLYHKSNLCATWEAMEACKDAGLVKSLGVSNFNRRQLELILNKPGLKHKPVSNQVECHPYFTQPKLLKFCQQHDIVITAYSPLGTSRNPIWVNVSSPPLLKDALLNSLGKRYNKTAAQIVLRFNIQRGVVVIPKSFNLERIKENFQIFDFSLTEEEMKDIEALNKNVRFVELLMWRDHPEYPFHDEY
# ASSAY_INFO: Cofactor binding, quenching of intrinsic protein fluorescence
# CONDITION_DESCRIPTION: 10 mM KPi, pH 7.0, 37 °C
pKd: −log10 of the molar value.
ENDPOINT_LABEL: pKd

[1] NC(=O)C1=CN([C@@H]2O[C@H](COP(=O)(O)OP(=O)(O)OC[C@H]3O[C@@H](n4cnc5c(N)ncnc54)[C@H](O)[C@@H]3O)[C@@H](O)[C@H]2O)C=CC1
[2] NC(=O)c1ccc[n+]([C@@H]2O[C@H](COP(=O)([O-])OP(=O)(O)OC[C@H]3O[C@@H](n4cnc5c(N)ncnc54)[C@H](OP(=O)(O)O)[C@@H]3O)[C@@H](O)[C@H]2O)c1
Could you point out whether the larger pKd belongs to 1 or to 2 ? Mark your answer with the label of the selected entry.
2
